- measurement.protocol: Phase 1 single ascending dose study of grapiprant OPC: pharmacokinetics
- Assay type: in vivo, human
- particulars: human, serum, oral, 100 mg, doses of 100 mg and above, OPC, fasted; read-out: individual Tmax values
readout: Tmax

>>> test_value("CCc1nc2c(C)nc(C)cc2n1-c1ccc(CCNC(=O)NS(=O)(=O)c2ccc(C)cc2)cc1 [Grapiprant]")
"30 to 60 min"

###

- measurement.protocol: Phase 1 multiple ascending dose study of grapiprant tablets: urine pharmacokinetics
- Type: in vivo, human
- particulars: 250 mg BID (Elderly) (n = 14), after 14 days of multiple oral dosing (Day 17), mean
readout: CLR/Fu (mL/min)

>>> test_value("CCc1nc2c(C)nc(C)cc2n1-c1ccc(CCNC(=O)NS(=O)(=O)c2ccc(C)cc2)cc1")
2720

###

- measurement.protocol: Phase 1 single ascending dose study of grapiprant OPC: pharmacokinetics
- Assay type: in vivo, human
- particulars: human, oral; single 2000 mg dose as OPC, fasted, healthy adults, serum, mean
readout: Cmax

>>> test_value("CCc1nc2c(C)nc(C)cc2n1-c1ccc(CCNC(=O)NS(=O)(=O)c2ccc(C)cc2)cc1")
"134 µg/mL"

###

- measurement.protocol: Phase 1 single ascending dose study of grapiprant OPC: pharmacokinetics
- Type: in vivo, human
- particulars: human, serum, oral, 600 mg, single 600 mg dose as OPC, fasted, healthy adults, median; read-out: Tmax
readout: Tmax (min)

>>> test_value("CCc1nc2c(C)nc(C)cc2n1-c1ccc(CCNC(=O)NS(=O)(=O)c2ccc(C)cc2)cc1")
30

###

- measurement.protocol: Phase 1 single ascending dose study of grapiprant OPC: pharmacokinetics
- Format: in vivo, human
- particulars: human, serum, oral, over the range of doses studied, OPC, fasted; read-out: mean terminal phase T1/2
readout: half-life

>>> test_value("CCc1nc2c(C)nc(C)cc2n1-c1ccc(CCNC(=O)NS(=O)(=O)c2ccc(C)cc2)cc1 [Grapiprant]")
"5.1 to 9.41 h"

###

- measurement.protocol: Phase 1 crossover food effect study of 375 mg grapiprant tablets: pharmacokinetics
- Assay type: in vivo, human
- particulars: human, serum, po, 375 mg, 375 mg tablet-fasted, single oral dose, healthy subjects (N = 12), median
readout: Tmax (h)

>>> test_value("CCc1nc2c(C)nc(C)cc2n1-c1ccc(CCNC(=O)NS(=O)(=O)c2ccc(C)cc2)cc1 [Grapiprant]")
1

###

- measurement.protocol: Phase 1 single ascending dose study of grapiprant OPC: pharmacokinetics
- Assay type: in vivo, human
- particulars: human, oral; single 10 mg dose as OPC, fasted, healthy adults, serum, mean
readout: AUC(0-inf) (ng·h/mL)

>>> test_value("CCc1nc2c(C)nc(C)cc2n1-c1ccc(CCNC(=O)NS(=O)(=O)c2ccc(C)cc2)cc1 [Grapiprant]")
917

###

- measurement.protocol: Phase 1 single ascending dose study of grapiprant OPC: pharmacokinetics
- Format: in vivo, human
- particulars: human, serum, oral, 2000 mg, single 2000 mg dose as OPC, fasted, healthy adults, median; read-out: Tmax
readout: Tmax (h)

>>> test_value("CCc1nc2c(C)nc(C)cc2n1-c1ccc(CCNC(=O)NS(=O)(=O)c2ccc(C)cc2)cc1 [Grapiprant]")
1

###

- measurement.protocol: Phase 1 single ascending dose study of grapiprant OPC: pharmacokinetics
- Assay type: in vivo, human
- particulars: human, serum, oral, 10 mg, single 10 mg dose as OPC, fasted, healthy adults, mean; read-out: T½ (converted)
readout: half-life (h)

>>> test_value("CCc1nc2c(C)nc(C)cc2n1-c1ccc(CCNC(=O)NS(=O)(=O)c2ccc(C)cc2)cc1 [Grapiprant]")
5.1
